Target: UL97 M460I (Human cytomegalovirus, UniProt Q68101, M460I)
Construct: PCR reaction to generate the full length UL97; honey bee melittin secretion signal (N)
Sequence (Q68101 whole entry M460I): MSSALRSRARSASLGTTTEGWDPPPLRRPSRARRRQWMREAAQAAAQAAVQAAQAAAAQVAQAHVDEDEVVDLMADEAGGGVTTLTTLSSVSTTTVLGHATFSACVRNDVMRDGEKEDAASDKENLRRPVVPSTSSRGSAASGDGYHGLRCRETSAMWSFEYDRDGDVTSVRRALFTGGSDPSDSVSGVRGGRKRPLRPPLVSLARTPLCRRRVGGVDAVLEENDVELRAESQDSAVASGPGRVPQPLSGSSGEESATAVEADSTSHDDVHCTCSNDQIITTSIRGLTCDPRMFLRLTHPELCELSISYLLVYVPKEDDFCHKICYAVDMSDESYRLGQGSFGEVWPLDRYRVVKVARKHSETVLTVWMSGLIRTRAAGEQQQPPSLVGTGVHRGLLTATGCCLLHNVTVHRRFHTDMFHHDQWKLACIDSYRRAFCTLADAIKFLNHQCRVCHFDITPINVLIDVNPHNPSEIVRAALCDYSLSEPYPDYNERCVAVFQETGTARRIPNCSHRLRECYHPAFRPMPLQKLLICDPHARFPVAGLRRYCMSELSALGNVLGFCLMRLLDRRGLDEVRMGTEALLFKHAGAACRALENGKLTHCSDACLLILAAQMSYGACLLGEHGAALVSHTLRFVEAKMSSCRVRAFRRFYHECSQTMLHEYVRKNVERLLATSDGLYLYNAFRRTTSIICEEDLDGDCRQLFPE
Assay: UL97 autophosphorylation protein kinase assay, M460I
Details: M460I mutant
observable: IC50 (nM)

- CC(C)Nc1nc2cc(Cl)c(Cl)cc2n1[C@H]1O[C@@H](CO)[C@H](O)[C@@H]1O [maribavir]: 4.8

* * *

Molecular target: UL97 V665I (Human cytomegalovirus, UniProt Q68101, V665I)
Construct: PCR reaction to generate the full length UL97; honey bee melittin secretion signal (N)
Sequence (Q68101 whole entry V665I): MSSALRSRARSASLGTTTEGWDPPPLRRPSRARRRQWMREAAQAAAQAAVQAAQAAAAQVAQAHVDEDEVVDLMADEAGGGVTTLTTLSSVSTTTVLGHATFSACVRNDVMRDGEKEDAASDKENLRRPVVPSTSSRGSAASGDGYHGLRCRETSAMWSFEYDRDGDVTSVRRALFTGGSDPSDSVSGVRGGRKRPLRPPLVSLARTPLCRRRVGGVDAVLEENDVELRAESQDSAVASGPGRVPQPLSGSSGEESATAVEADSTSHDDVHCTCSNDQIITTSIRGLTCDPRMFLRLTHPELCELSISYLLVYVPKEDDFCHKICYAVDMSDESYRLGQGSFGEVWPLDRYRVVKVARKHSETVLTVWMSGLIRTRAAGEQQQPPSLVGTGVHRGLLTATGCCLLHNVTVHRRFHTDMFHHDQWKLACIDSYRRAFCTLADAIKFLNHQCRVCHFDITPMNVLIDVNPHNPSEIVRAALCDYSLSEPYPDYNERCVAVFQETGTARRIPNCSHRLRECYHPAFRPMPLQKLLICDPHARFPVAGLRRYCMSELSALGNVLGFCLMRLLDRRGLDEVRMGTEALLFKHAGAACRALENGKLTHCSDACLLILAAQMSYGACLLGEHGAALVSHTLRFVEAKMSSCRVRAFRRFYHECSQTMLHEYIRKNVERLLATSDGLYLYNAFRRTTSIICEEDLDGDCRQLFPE
Experiment: UL97 autophosphorylation protein kinase assay, V665I
Details: V665I mutant
pIC50: −log10 of the molar value.
observable: pIC50

* CC(C)Nc1nc2cc(Cl)c(Cl)cc2n1[C@H]1O[C@@H](CO)[C@H](O)[C@@H]1O [maribavir] | 7.52
